Reported melting point is given for each of the following compounds.
Quantity Name: melting point

INSERT INTO results (compound, quantity_name, experimental_value) VALUES
  ('C=C(C(=O)NCc1ccc(C(F)(F)F)cc1)c1ccccc1', 'melting point', '88 to 90 °C'),
  ('C=C(C(=O)NCc1ccc(F)cc1)c1ccccc1 [Compound 6 b, N‐(4‐Fluorobenzyl)‐2‐phenylacrylamide]', 'melting point', '108 to 110 °C'),
  ('C=C(C(=O)NCc1ccc(Cl)cc1Cl)c1ccccc1', 'melting point', '66 to 68 °C'),
  ('COc1ccc(CNC(=O)C(Cn2ccnc2)c2ccccc2)cc1 (stereo not shown)', 'melting point', '102 to 104 °C'),
  ('C=C(C(=O)NCc1ccc(OC)c(OC)c1)c1ccccc1', 'melting point', '102 to 104 °C'),
  ('C=C(C(=O)NCc1ccc(NS(=O)(=O)c2ccc(OC)cc2)cc1)c1ccccc1', 'melting point', '98 to 100 °C'),
  ('C=C(C(=O)NCc1ccc(NS(=O)(=O)c2ccc(F)cc2)cc1)c1ccccc1', 'melting point', '136 to 138 °C'),
  ('C=C(C(=O)NCc1ccc(Cl)cc1)c1ccc(Cl)cc1', 'melting point', '108 to 110 °C'),
  ('O=C(NCc1ccc(NS(=O)(=O)c2ccccc2)cc1)C(Cn1cncn1)c1ccccc1 (stereo not shown)', 'melting point', '96 to 98 °C'),
  ('O=C(NCc1ccc(Cl)cc1Cl)C(Cn1ccnc1)c1ccc(Cl)cc1 (stereo not shown)', 'melting point', '148 to 150 °C'),
  ('C=C(C(=O)NCc1ccc(C)cc1)c1ccccc1 [Compound 6 g, N‐(4‐Methylbenzyl)‐2‐phenylacrylamide]', 'melting point', '92 to 94 °C'),
  ('C=C(C(=O)NCc1ccc(OC)cc1)c1ccccc1 [Compound 6 i, N‐(4‐Methoxybenzyl)‐2‐phenylacrylamide]', 'melting point', '100 to 102 °C'),
  ('C=C(C(=O)NCc1ccc(NC(=O)OC(C)(C)C)cc1)c1ccccc1', 'melting point', '136 to 138 °C'),
  ('O=C(NCc1ccc(Cl)cc1)C(Cn1ccnc1)c1ccc(Cl)cc1 (stereo not shown)', 'melting point', '160 to 162 °C'),
  ('C=C(C(=O)NCc1ccc(Cl)cc1Cl)c1ccc(Cl)cc1', 'melting point', '104 to 106 °C'),
  ('O=C(NCc1ccc(F)cc1)C(Cn1ccnc1)c1ccccc1 (stereo not shown)', 'melting point', '100 to 102 °C'),
  ('O=C(NCc1ccc(NS(=O)(=O)c2ccc(Cl)cc2)cc1)C(Cn1cncn1)c1ccccc1 (stereo not shown)', 'melting point', '122 to 124 °C'),
  ('Cc1ccc(CNC(=O)C(Cn2ccnc2)c2ccccc2)cc1 (stereo not shown)', 'melting point', '134 to 136 °C'),
  ('O=C(NCc1ccc(Cl)cc1Cl)C(Cn1ccnc1)c1ccccc1 (stereo not shown)', 'melting point', '55 to 57 °C');
